experiment: qHTS drug screen for cell cycle checkpoint inhibitors in PARPi-resistant BRCA-mutant ovarian cancer cell lines. (AID 1963452); conditions: PEO1/OlaR viability, CellTiter-Glo luminescence, 96 h; further: potency means the concentration at half of the fitted maximal effect
Activity calls are given as the source filed them. The call rests on the fitted dose curve.
Potency listing for selected compounds.

Below, each entry is followed by its recorded Potency result.
{"compound": "N#CNC(=NCCCCCCOc1ccc(Cl)cc1)Nc1ccncc1", "recorded_result": "34.7 nM (active)"}
{"compound": "COc1ccc(C=Cc2cc(OC)c(OC)c(OC)c2)cc1NC(=O)[C@H](N)CO", "recorded_result": "54.9 nM (active)"}
{"compound": "CC(C)C[C@H](NC(=O)[C@@H](NC(=O)c1cccc(-c2ccccc2)n1)[C@@H](C)O)B(O)O", "recorded_result": "60.1 nM (active)"}

For C#CCC(Cc1cnc2nc(N)nc(N)c2n1)c1ccc(C(=O)N[C@@H](CCC(=O)O)C(=O)O)cc1 (some centres not stated) , what is its reported Potency?
7.8 nM (active)

For CCN(CC)Cc1ccc2cc(COC(=O)Nc3ccc(C(=O)NO)cc3)ccc2c1 , what is its reported Potency?
977 nM (active)

For COc1ccc(S(=O)(=O)Nc2cccnc2Nc2ccc(O)cc2)cc1 , what is its reported Potency?
1380 nM (active)

For Cn1cc(CNCC2CCN(c3ncc(C(=O)NO)cn3)CC2)c2ccccc21 , what is its reported Potency?
195 nM (active)
